# tested target: mouse SMO^WT (Mus musculus, UniProt P56726)
# Construct: expressed in transfected cells
# Sequence (P56726 33-793): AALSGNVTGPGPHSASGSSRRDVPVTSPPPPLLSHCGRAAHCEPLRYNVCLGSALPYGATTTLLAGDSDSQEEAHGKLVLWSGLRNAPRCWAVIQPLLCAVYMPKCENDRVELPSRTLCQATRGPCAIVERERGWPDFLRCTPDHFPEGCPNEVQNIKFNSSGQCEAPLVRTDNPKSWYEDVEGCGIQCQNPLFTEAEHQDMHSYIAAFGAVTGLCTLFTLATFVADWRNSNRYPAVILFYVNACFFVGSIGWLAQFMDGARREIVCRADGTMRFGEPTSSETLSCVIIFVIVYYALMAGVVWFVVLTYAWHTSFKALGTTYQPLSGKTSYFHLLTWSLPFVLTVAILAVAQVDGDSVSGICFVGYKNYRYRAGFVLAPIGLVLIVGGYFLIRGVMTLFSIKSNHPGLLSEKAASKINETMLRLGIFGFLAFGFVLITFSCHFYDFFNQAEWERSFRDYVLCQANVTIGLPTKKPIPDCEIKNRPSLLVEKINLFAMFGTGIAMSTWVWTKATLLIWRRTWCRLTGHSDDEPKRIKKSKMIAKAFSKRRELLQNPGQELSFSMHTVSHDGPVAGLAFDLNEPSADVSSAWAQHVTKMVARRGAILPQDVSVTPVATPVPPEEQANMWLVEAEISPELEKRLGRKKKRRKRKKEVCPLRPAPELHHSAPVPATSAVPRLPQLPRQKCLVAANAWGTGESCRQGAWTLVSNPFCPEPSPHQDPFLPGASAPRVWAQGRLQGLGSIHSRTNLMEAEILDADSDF
# assay name: Mouse assay: Gli1 qPCR in MEF cells stably expressing mouse SMO WT
# Assay type: cell-based
# condition context: mSHh-treated, 24 hours, Gli1 inhibition by qPCR, read-out: Mouse WT pIC50 (converted)
parameter measured: IC50 (nM)

• CN(C)c1nnc(-c2ccc(NC(=O)c3cccc(CN4CCS(=O)(=O)CC4)c3)cc2)o1 [Example 4-9] = 39.8
• O=C(Nc1ccc(-c2cnc(C3CC3)o2)cc1)c1cccc(CN2CCS(=O)(=O)CC2)c1 [Example 4-5] = 7.94
• O=C(Nc1ccc(-c2nc(Cc3cccc(F)c3)n[nH]2)cc1)c1cccc(CN2CCS(=O)(=O)CC2)c1 [Example 3-20] = 15.8

1. CC(C)c1n[nH]c(-c2ccc(NC(=O)c3cccc(CN4CCS(=O)(=O)CC4)c3)cc2)n1.Cl [Example 3-1]
2. O=C(Nc1ccc(-c2noc(Cc3ccc(Cl)cc3)n2)cc1)c1cccc(CN2CCS(=O)(=O)CC2)c1 [Example 4-18]
3. Cc1nc(-c2ccc(NC(=O)c3cccc(CN4CCS(=O)(=O)CC4)c3)cc2)oc1C [Example 4-1]
4. O=C(Nc1ccc(-c2nc(-c3cccc(Cl)c3)n[nH]2)cc1)c1cccc(CN2CCS(=O)(=O)CC2)c1 [Example 3-11]
Order each entry by recorded IC50, climbing from the minimum. Response format: the labels, sorted as the prompt asks.
2, 3, 4, 1
(2: 2.51 nM, 3: 6.31 nM, 4: 10 nM, 1: 20 nM)

---

# tested target: mouse SMO^WT (Mus musculus)
# Construct: expressed in transfected cells
# assay name: Mouse assay: Gli1 qPCR in MEF cells stably expressing mouse SMO WT; as to Mouse WT % Inh: test concentration or dose not given here
# Format: cell-based
# condition context: mSHh-treated, 24 hours, percentage Gli1 inhibition
parameter measured: Mouse WT % Inh (%)

* O=C(Nc1ccc(-c2noc(Cc3ccc(Cl)cc3)n2)cc1)c1cccc(CN2CCS(=O)(=O)CC2)c1 [Example 4-18] | 98.7
* O=C(Nc1ccc(-c2nc(C3CCN(c4ccccc4)C3)n[nH]2)cc1)c1cccc(CN2CCS(=O)(=O)CC2)c1 (stereo not shown) [Example 3-8] | 98.6
* CC(C)(C)c1n[nH]c(-c2ccc(NC(=O)c3cccc(CN4CCS(=O)(=O)CC4)c3)cc2)n1 [Example 3-2] | 97.3
* O=C(Nc1ccc(-c2cnc(C3CC3)o2)cc1)c1cccc(CN2CCS(=O)(=O)CC2)c1 [Example 4-5] | 99.9

---

# tested target: human SMO D473H (Homo sapiens, UniProt Q99835, D473H)
# Construct: expressed in transfected cells; host or cells: SMO knock-out mouse embryonic fibroblasts (MEF SMO-/-), BacMam transduction
# Sequence (Q99835 28-787 D473H): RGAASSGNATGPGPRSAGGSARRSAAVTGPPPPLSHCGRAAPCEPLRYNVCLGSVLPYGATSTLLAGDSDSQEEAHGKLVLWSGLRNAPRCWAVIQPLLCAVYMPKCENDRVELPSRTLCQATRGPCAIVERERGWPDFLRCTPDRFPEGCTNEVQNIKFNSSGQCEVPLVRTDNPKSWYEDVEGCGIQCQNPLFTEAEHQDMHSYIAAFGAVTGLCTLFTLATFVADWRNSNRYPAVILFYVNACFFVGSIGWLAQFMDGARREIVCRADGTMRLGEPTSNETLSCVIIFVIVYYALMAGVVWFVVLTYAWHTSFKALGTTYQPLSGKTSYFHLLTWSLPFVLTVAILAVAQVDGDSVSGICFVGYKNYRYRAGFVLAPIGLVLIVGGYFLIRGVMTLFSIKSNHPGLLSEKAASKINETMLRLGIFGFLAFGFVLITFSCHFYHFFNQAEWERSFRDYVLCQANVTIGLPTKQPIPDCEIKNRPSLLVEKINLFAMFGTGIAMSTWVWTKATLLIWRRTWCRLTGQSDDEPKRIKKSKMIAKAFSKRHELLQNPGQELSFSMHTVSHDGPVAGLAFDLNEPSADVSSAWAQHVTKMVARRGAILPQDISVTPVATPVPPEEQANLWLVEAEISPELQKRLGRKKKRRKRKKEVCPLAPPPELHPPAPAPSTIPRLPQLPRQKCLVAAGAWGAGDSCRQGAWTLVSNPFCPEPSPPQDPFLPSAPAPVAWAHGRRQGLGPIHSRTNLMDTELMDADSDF
# assay name: Human assay: Gli1 qPCR in MEF SMO-/- cells BacMam-transduced with hSMO D473H variant; also: test concentration or dose not given here
# Assay type: cell-based
# condition context: mSHh-treated, 24 hours, percentage Gli1 inhibition
parameter measured: Human D473H % Inh (%)

• O=C(Nc1ccc(-c2nc(Cc3ccc(Br)cc3)n[nH]2)cc1)c1cccc(CN2CCS(=O)(=O)CC2)c1 = 104
• CC(C)c1noc(-c2ccc(NC(=O)c3cccc(CN4CCS(=O)(=O)CC4)c3)cc2)n1 = 100.2

P. CS(=O)(=O)c1ccc(C(=O)Nc2ccc(Cl)c(-c3ccccn3)c2)c(Cl)c1 [Vismodegib, reference compound]
Q. CC1CN(Cc2cccc(C(=O)Nc3ccc(-c4nc(C5CC5)n[nH]4)cc3)c2)CCS1(=O)=O (stereo not drawn)
Compare P and Q and name the one whose reported Human D473H % Inh is smaller. Answer by stating the label of the chosen item.
P
(P: 45.4%, Q: 85%)

A. O=C(Nc1ccc(-c2nc(C3CC3)n[nH]2)cc1)c1cc(F)cc(CN2CCS(=O)(=O)CC2)c1
B. Cn1nc(-c2ccc(NC(=O)c3cccc(CN4CCS(=O)(=O)CC4)c3)cn2)cc1C1CC1
Human D473H % Inh comparison. Which is larger, A or B ? Kindly state the label of the option you pick.
B

---

# tested target: mouse SMO^WT (Mus musculus)
# Construct: expressed in transfected cells
# assay name: Mouse assay: Gli1 qPCR in MEF cells stably expressing mouse SMO WT
# Assay type: cell-based
# condition context: mSHh-treated, 24 hours, Gli1 inhibition by qPCR, read-out: Mouse WT pIC50 (converted)
parameter measured: IC50 (nM)

- O=C(Nc1ccc(-c2nc(C3CC3)n[nH]2)cc1)c1cc(Cl)cc(CN2CCS(=O)(=O)CC2)c1 [Example 2-4]: 5.01
- O=C(Nc1ccc(-c2nc(Cc3cc(Cl)ccc3Cl)n[nH]2)cc1)c1cccc(CN2CCS(=O)(=O)CC2)c1 [Example 3-26]: 15.8
- O=C(Nc1ccc(-c2nc(C3CCCCC3)n[nH]2)cc1)c1cccc(CN2CCS(=O)(=O)CC2)c1 [Example 3-6]: 31.6

A. O=C(Nc1ccc(-c2noc(Cc3ccc(F)cc3)n2)cc1)c1cccc(CN2CCS(=O)(=O)CC2)c1 [Example 4-17]
B. O=C(Nc1ccc(-c2nc(-c3ccccn3)n[nH]2)cc1)c1cccc(CN2CCS(=O)(=O)CC2)c1 [Example 3-15]
Select the item with the higher value of IC50 from the options A and B listed. Please respond with the label that marks your chosen entry.
B
(B: 79.4 nM, A: 2 nM)

---

# tested target: mouse SMO^D473H (Mus musculus, UniProt P56726, D477H)
# Construct: expressed in transfected cells
# Sequence (P56726 33-793 D477H): as the sequence (P56726 33-793) above, with D445H counted along it
# assay name: Mouse assay: Gli1 qPCR in MEF cells stably expressing mouse SMO D473H
# Type: cell-based
# condition context: mSHh-treated, 24 hours, Gli1 inhibition by qPCR, read-out: Mouse D473H pIC50 (converted)
parameter measured: IC50 (nM)

• CC1CN(Cc2cccc(C(=O)Nc3ccc(-c4nc(C5CC5)n[nH]4)cc3)c2)CCS1(=O)=O (stereo not shown) [Example 1-2] = 126
• O=C(Nc1ccc(-c2cnc(C3CC3)o2)cc1)c1cccc(CN2CCS(=O)(=O)CC2)c1 [Example 4-5] = 100
• O=C(Nc1ccc(-c2cc(C3CC3)n[nH]2)cc1)c1cccc(CN2CCS(=O)(=O)CC2)c1 [Example 4-19] = 15.8

1. O=C(Nc1ccc(-c2cc(C3CC3)on2)cc1)c1cccc(CN2CCS(=O)(=O)CC2)c1 [Example 4-7]
2. O=C(Nc1ccc(-c2nc(Cc3cc4c(cc3Cl)OCO4)n[nH]2)cc1)c1cccc(CN2CCS(=O)(=O)CC2)c1 [Example 3-29]
3. Cc1oc(-c2ccc(NC(=O)c3ccc(Cl)c(CN4CCS(=O)(=O)CC4)c3)cc2)nc1C1CC1 [Example 4-4]
4. Cc1nc(-c2ccc(NC(=O)c3cccc(CN4CCS(=O)(=O)CC4)c3)cc2)oc1C [Example 4-1]
Sort by IC50, descending. To answer, write out the labels according to the requested order.
2, 4, 1, 3

a. O=C(Nc1ccc(-c2nc(C3CCN(c4ccccc4)C3)n[nH]2)cc1)c1cccc(CN2CCS(=O)(=O)CC2)c1 (stereo not shown) [Example 3-8]
b. O=C(Nc1ccc(-c2nc(C3CCCN(Cc4ccccc4)C3)n[nH]2)cc1)c1cccc(CN2CCS(=O)(=O)CC2)c1 (stereo not shown) [Example 3-9]
Just tell me: smaller IC50 value, a or b ? Respond with the label that goes with your answer.
a

1. O=C(Nc1ccc(-c2nc(C3CC3)n[nH]2)cc1)c1cccc(CN2CCSCC2)c1 [Example 1-1]
2. O=C(Nc1ccc(-c2noc(C3CCC3)n2)cc1)c1cccc(CN2CCS(=O)(=O)CC2)c1 [Example 4-13]
3. Cc1ccc(Cc2n[nH]c(-c3ccc(NC(=O)c4cccc(CN5CCS(=O)(=O)CC5)c4)cc3)n2)cc1 [Example 3-18]
Reorder the items by IC50, least to greatest. // ordering of labels required in reply
3, 1, 2
(3: 79.4 nM, 1: 200 nM, 2: 316 nM)

---

# tested target: mouse SMO^WT (Mus musculus, UniProt P56726)
# Construct: expressed in transfected cells
# assay name: Mouse assay: Gli1 qPCR in MEF cells stably expressing mouse SMO WT; as to Mouse WT % Inh: test concentration or dose not given here
# Assay type: cell-based
# condition context: mSHh-treated, 24 hours, percentage Gli1 inhibition
parameter measured: Mouse WT % Inh (%)

• O=C(Nc1ccc(-c2nc(-c3cccc(Oc4nccs4)c3)n[nH]2)cc1)c1cccc(CN2CCS(=O)(=O)CC2)c1 = 97.4
• O=C(Nc1ccc(-c2nc(CC3CC3)n[nH]2)cc1)c1cccc(CN2CCS(=O)(=O)CC2)c1 = 98.5
• O=C(Nc1ccc(-c2cc(C3CC3)on2)cc1)c1cccc(CN2CCS(=O)(=O)CC2)c1 = 98.8
• O=C(Nc1ccc(-c2noc(C3CCC3)n2)cc1)c1cccc(CN2CCS(=O)(=O)CC2)c1 = 98.8

---

# tested target: human SMO W535L (Homo sapiens, UniProt Q99835, W535L)
# Construct: expressed in transfected cells; host or cells: SMO knock-out mouse embryonic fibroblasts (MEF SMO-/-), BacMam transduction
# Sequence (Q99835 28-787 W535L): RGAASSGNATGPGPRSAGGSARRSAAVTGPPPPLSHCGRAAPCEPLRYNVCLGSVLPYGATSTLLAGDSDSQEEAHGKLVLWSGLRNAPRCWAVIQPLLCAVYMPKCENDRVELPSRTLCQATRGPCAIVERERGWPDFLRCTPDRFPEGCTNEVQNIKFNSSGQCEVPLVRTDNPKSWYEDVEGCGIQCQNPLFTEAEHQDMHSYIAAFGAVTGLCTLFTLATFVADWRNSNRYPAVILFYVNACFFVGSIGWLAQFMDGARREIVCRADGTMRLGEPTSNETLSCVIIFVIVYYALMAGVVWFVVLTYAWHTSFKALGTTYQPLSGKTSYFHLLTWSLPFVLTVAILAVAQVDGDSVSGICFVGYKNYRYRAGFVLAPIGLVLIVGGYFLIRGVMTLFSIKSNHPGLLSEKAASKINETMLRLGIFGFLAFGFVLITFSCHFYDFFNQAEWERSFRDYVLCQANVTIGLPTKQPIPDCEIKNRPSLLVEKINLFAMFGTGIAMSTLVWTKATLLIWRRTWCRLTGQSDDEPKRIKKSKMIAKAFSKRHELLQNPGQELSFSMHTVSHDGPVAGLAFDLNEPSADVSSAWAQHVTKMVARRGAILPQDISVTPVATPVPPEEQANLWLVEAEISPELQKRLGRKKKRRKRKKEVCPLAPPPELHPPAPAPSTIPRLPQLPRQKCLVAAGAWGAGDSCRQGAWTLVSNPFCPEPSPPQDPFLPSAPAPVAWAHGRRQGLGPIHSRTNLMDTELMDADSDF
# assay name: Human assay: Gli1 qPCR in MEF SMO-/- cells BacMam-transduced with hSMO W535L variant; also: test concentration or dose not given here
# Type: cell-based
# condition context: mSHh-treated, 24 hours, percentage Gli1 inhibition
parameter measured: Human W535L % Inh (%)

- Cc1c(-c2ccc(NC(=O)c3ccc(Cl)c(CN4CCS(=O)(=O)CC4)c3)cc2)nn(C)c1C1CC1: 92.5
- Cc1oc(-c2ccc(NC(=O)c3ccc(F)c(CN4CCS(=O)(=O)CC4)c3)cc2)nc1C1CC1: 95.6
- CS(=O)(=O)c1ccc(C(=O)Nc2ccc(Cl)c(-c3ccccn3)c2)c(Cl)c1 [Vismodegib, reference compound]: 92.6
- O=C(Nc1ccc(-c2nc(C3CCCC3)n[nH]2)cc1)c1cccc(CN2CCS(=O)(=O)CC2)c1: 75.4
- O=C(Nc1ccc(-c2nc(C3CC3)n[nH]2)cc1)c1cc(Cl)cc(CN2CCS(=O)(=O)CC2)c1: 87.8
- O=C(Nc1ccc(-c2cc(C3CC3)n[nH]2)cc1)c1cccc(CN2CCS(=O)(=O)CC2)c1: 86.3
- O=C(Nc1ccc(-c2nc(Cc3ccc(Br)cc3)n[nH]2)cc1)c1cccc(CN2CCS(=O)(=O)CC2)c1: 98.5
